What pIC50 was measured for each of the following?
testedTarget: JMJD2E (Homo sapiens, UniProt B2RXH2)
Sequence (B2RXH2 1-337): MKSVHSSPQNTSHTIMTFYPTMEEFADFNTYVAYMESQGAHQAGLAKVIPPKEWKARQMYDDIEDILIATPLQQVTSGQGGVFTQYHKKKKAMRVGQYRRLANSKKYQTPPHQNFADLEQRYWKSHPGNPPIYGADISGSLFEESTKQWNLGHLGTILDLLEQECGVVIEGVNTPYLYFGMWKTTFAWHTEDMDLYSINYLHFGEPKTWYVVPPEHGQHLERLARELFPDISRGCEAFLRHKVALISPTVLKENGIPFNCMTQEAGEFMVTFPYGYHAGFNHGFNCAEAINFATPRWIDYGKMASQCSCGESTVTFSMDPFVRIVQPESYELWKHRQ
measurementProtocol: JMJD2E FDH-coupled assay under low and high iron conditions (iron chelation profile)
Assay type: biochemical
Set-up: The catalytic domain of human JMJD2E (residues 1–337); His6 (N); made in house; host or cells: E. coli
testSettings: Table S1; low iron 2.5 µM FAS; unit not in table, from Figure 2; read-out: qHTS Data: jmjd2e fas2.5um IC50
Give bare numbers, as −log10 of the molar value.

{"compound": "C[C@@](N)(Cc1ccc(O)c(O)c1)C(=O)O [compound 11112415]", "testedTarget": "JMJD2E (Homo sapiens, UniProt B2RXH2)", "pIC50": 5.35}

Value sought for every listed compound: pIC50.
1. O=c1cc2c(=O)oc3cc(O)c(O)oc3c2c(O)c1O [compound 26666750]
2. C[C@@](Cc1ccc(O)c(O)c1)(NN)C(=O)O [compound 11113507]
3. O=c1nc(N/N=C/c2ccccn2)cn[nH]1 [compound 24822918]
4. Oc1cc(O)c2c(c1)OC(c1cc(O)c(O)c(O)c1)C(O)C2 (stereo not shown) [compound 26749553]
5. O=c1c2ccccc2sn1-c1nccs1 [compound 24830882]
6. C[C@@H]1Cc2c(O)c(O)cc(O)c2C(=O)O1 [compound 26657786]
7. O=C1C=CC(=O)c2c(O)cccc21 [compound 26749198]
8. C=C1c2cccc(O)c2C(O)=C2C(=O)[C@]3(O)C(O)=C(C(N)=O)C(=O)C(N(C)C)C3C(O)C12.Cl (stereo partly shown) [compound 26748477]

1. 5.75
2. 5.45
3. 5.15
4. 5.55
5. 5.10
6. 5.45
7. 5.30
8. 4.90
